Hey, just so you know, these numbers are from paper PMC5362808.

# ASSAYED_TARGET: TIE-2 (Homo sapiens)
# Sequence (Q02763 23-1124): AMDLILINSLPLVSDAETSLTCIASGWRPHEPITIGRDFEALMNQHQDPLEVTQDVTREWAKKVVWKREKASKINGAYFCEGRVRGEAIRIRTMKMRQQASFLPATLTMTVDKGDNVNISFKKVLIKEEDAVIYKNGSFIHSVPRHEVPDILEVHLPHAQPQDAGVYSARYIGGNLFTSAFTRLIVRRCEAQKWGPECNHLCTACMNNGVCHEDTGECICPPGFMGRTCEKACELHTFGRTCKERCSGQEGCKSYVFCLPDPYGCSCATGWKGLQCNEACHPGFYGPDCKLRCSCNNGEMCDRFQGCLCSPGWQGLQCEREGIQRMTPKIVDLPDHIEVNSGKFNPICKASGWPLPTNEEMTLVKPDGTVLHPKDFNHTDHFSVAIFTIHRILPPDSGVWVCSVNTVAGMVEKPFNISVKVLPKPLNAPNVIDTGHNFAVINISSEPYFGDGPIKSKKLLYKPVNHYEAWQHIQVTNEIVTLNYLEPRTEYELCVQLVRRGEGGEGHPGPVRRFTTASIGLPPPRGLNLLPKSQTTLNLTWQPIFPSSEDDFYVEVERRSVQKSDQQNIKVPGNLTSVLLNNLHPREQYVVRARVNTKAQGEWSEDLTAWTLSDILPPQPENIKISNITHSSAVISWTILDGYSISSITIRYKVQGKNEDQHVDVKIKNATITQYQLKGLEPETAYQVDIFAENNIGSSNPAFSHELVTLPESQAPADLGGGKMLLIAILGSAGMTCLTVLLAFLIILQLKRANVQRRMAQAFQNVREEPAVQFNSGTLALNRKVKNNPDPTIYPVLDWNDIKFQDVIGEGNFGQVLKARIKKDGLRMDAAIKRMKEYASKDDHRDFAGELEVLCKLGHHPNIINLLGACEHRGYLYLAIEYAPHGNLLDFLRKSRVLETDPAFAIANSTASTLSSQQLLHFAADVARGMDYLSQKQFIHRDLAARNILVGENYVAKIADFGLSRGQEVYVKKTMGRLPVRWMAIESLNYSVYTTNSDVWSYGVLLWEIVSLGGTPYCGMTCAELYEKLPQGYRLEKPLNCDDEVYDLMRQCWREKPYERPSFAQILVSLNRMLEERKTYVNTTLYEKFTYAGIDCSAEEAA
# PROTOCOL_NOTES: ADP-Glo kinase inhibition assay, TIE-2
# Type: biochemical
# SETUP_CONDITIONS: Table 2, ATP 50 μM, read-out: TIE-2 inhibitory activity (IC50)
Entries and their IC50
Field: numeric (nM). Do not append units.

Solved entries:
O=C(Nc1ccc(-c2cccc(NC(=O)C3CC3)n2)cc1)Nc1cccc(C(F)(F)F)c1 [CDAU-21] : 42.8
O=C(Nc1ccc(-c2cccc(NC(=O)C3CC3)n2)cc1)Nc1ccc(Cl)cc1Cl [CDAU-20] : 78.8

Now for another entry.
Problem: Kindly state the measured IC50 obtained for O=C(Nc1ccc(F)cc1)Nc1ccc(-c2cccc(NC(=O)C3CC3)n2)cc1 [CDAU-14] with TIE-2 (Homo sapiens).
Solution: 32.9
